The reported numbers originate from paper PMC2993181.

- Test system: JEKO-1
- experiment: cells
- Parameters: species or system cell viability; MTT cell viability assay, absorbance 570/650 nm; IC50 by linear interpolation of concentration-response curve
- conditionDescription: Homo sapiens, JeKo-1, 48 h; read-out: IC 50 values
pIC50: −log10 of the molar value.
measurementKind: pIC50

{"molecule": "CN(C)c1ccc(/C=C/C=N/NC(=O)CN2C(=O)N(c3ccc(Cl)cc3)C(N(O)C(=O)Nc3ccc(Cl)cc3)C2(C)C)cc1 (stereo not drawn)", "measurementTarget": "JEKO-1", "valueQualifier": "<", "measuredResult": 4.40}
{"molecule": "O=C(CCCC[C@@H]1SC[C@@H]2NC(=O)N[C@@H]21)N/N=C/C=C/c1ccc([N+](=O)[O-])o1", "measurementTarget": "JEKO-1", "valueQualifier": "=", "measuredResult": 4.60}
{"molecule": "CC1(C)C(N(O)C(=O)Nc2ccc(Cl)cc2)N(c2ccc(Cl)cc2)C(=O)N1CC(=O)N/N=C/C=C/c1ccc([N+](=O)[O-])o1 (stereo not drawn)", "measurementTarget": "JEKO-1", "valueQualifier": "=", "measuredResult": 5.46}
